Data credit: the supplement of paper PMC10567573

test: protein stability index of a GFP-peptide fusion (GPS, HEK-293T) (PSI 1-6); higher = more stable; conditions: treatment: DMSO; c terminus: a fixed tail appended;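 further: 24-mer peptide tiles fused after GFP, lentivirally expressed, FACS-sorted into six equal bins by GFP/DsRed ratio, decoded by Illumina sequencing, PSI is the read-weighted mean bin number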
measuredEndpoint: protein stability index

NLAQDPQCKEWQVLMCGFPFLLLF [TMEM120A] ... 2.5
EGYAHLTHLLMGLASGRIILILEG [HDAC6] ... 2.91
PEDGRIFAQRTFDYELLQMLQIVV [PCDHGC5] ... 2.19
YFCYKAILEFAEKEGMVSSGQNLL [PTPN9] ... 2.2
FLQVLEPGARGLWKPPDIKGKLMV [SPAG8] ... 2.38
ASNRIIGAKDHASIQMNVAEVSWE [RPS21] ... 3.63
EDDPSVLYVSLHRYDHGTFFPMGD [HDAC6] ... 2.29
GTEITIAFDFDYGNCKYKVDCACL [KMT2E] ... 3.01

# return protein stability index for each item in the list
1. LGPSGLQNHGQHLILSREASWAKP [LCOR]
2. QNPPVIKSSGRFLWIKFFAAGELE [NETO1]
3. TCVYIAEIAPQHRRGLLVSLNELM [SLC2A12]
4. PEDLAQLEELIDMAVLEEIQQELI [RPAIN]
5. IDYKTTTILLDGQRVKLKLWDTSG [RAB40A]

1: 3.08; 2: 2.57; 3: 2.73; 4: 2.54; 5: 2.27
